targetUnderTest: Splicing factor 3B subunit 1 / PHD finger-like domain-containing protein 5A (Homo sapiens, UniProt O75533+Q7RTV0)
Sequence (O75533 whole entry, the tested form may be a part): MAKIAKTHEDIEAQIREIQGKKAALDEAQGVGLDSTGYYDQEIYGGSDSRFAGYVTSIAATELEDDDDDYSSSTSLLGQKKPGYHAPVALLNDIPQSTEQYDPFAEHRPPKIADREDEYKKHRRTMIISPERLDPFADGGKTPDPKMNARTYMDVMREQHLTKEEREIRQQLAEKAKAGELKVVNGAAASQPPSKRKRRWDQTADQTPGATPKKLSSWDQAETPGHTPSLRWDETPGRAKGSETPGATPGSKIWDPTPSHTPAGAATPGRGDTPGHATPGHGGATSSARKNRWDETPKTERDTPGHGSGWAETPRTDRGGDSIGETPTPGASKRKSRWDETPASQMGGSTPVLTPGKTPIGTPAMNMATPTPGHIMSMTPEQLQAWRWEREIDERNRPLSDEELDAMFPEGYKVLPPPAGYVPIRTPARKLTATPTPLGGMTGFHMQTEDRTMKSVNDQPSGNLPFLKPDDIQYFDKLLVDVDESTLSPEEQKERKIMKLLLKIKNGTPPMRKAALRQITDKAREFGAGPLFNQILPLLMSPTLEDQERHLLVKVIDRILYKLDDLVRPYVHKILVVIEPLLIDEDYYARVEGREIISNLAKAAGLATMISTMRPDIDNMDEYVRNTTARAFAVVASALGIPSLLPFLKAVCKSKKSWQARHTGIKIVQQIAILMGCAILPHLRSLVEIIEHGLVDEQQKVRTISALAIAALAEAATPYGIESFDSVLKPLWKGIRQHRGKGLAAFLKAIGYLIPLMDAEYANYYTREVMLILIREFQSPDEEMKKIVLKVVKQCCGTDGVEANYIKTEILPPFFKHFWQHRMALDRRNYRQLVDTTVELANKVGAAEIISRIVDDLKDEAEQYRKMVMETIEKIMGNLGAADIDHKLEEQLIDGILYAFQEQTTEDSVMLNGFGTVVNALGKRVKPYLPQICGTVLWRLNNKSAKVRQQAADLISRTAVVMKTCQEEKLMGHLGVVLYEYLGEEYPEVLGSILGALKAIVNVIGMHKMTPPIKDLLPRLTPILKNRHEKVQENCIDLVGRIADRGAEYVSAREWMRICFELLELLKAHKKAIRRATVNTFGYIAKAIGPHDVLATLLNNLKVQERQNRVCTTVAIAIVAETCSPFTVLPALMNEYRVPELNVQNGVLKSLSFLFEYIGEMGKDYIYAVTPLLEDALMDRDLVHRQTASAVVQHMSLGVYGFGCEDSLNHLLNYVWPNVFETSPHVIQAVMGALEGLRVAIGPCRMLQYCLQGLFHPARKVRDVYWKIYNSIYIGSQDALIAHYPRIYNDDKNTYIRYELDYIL
Sequence (Q7RTV0 2-110 limits assumed): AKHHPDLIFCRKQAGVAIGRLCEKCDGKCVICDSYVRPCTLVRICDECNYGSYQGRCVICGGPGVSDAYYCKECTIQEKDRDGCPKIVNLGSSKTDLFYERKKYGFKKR
testDescription: VEGF-PLAP
conditionSummary: pH 7.8; 4 °C
pEC50: −log10 of the molar value.
Measured pEC50 accompanies every entry in the list below.

{"columns": ["compound", "pEC50"],
 "data": [
  ["CC[C@H](O)[C@@H](C)[C@H]1O[C@@H]1C[C@@](C)(O)/C=C/C=C(\\C)[C@H]1OC(=O)C[C@H](O)CC[C@@](C)(O)[C@@H](OC(C)=O)/C=C/[C@@H]1C", 8.37],
  ["CCNC(=O)O[C@H]1/C=C/[C@H](C)[C@@H](/C(C)=C/C=C/[C@@H](C)C[C@H]2O[C@@H]2[C@H](C)[C@@H](O)CC)OC(=O)C[C@H](O)CC[C@@]1(C)O [CID16202133]", 8.31]
]}
